FYI, the data here is from patent US8008461B2.

Exercise: for every item that follows, state its recorded Relative activity.
# System: purified polypeptide (carbonyl reductase)
# experimental_details: Substrate specificity of polypeptide (NADPH-dependent reduction of carbonyl compounds)
# Format: biochemical, Candida magnoliae strain NBRC0661
# setup_conditions: 1 mM substrate, 0.25 mM NADPH, pH 6.5, 30° C.; relative to activity to 3-oxo-3-phenylpropanenitrile
Field format: number, assumed %, no unit text.

# input compound: "N#CCC(=O)c1ccccc1" ; wanted: its Relative activity
100

# input compound: CC(=O)CC(=O)OCc1ccccc1 [benzyl acetoacetate] ; wanted: its Relative activity
4936

# input compound: "CC(=O)c1ccccc1" ; wanted: its Relative activity
1023

# input compound: "O=C(O)CC(=O)C(=O)O" ; wanted: its Relative activity
421

# input compound: "CCC(=O)c1ccccc1" ; wanted: its Relative activity
3010

# input compound: O=C(CO)c1ccccc1 [2-hydroxyacetophenone] ; wanted: its Relative activity
1806

# input compound: "CC(=O)c1cccc([N+](=O)[O-])c1" ; wanted: its Relative activity
5056

# input compound: "CCCCC(C)=O" ; wanted: its Relative activity
602

# input compound: "CC(=O)c1ccc(Cl)cc1" ; wanted: its Relative activity
2347

# input compound: "CCCCCC(C)=O" ; wanted: its Relative activity
782

# input compound: "CC(=O)c1ccc(C)cc1" ; wanted: its Relative activity
542

# input compound: CCOC(=O)CC(=O)CCl [ethyl 4-chloroacetoacetate] ; wanted: its Relative activity
8547
